Below: a set of entries, each annotated with reported inhibition of growth at 10 µM.
- Tested on: M14
- Test summary: Growth inhibition of human M14 cells at 10 uM incubated for 48 hrs by sulforhodamine B assay relative to control
- Type: functional
- Experimental setup: M14, 48 h, read-out: GI
# output: bare number, implied unit %

Below: 2 molecules and their reported inhibition of growth at 10 µM.
[
  {
    "Molecule": "CCOC(=O)C1=C(C)NC(SCc2nnc(-c3ccc(Cl)cc3)o2)=NC1c1ccc(Cl)cc1 (centres undefined)",
    "Target under test": "M14",
    "Reported": 30.7
  },
  {
    "Molecule": "CCOC(=O)C1=C(C)NC(SCc2nnc(-c3ccc(Cl)cc3)o2)=NC1c1ccc(Br)cc1 (centres undefined)",
    "Target under test": "M14",
    "Reported": 26
  }
]

Query :: // returns reported inhibition of growth at 10 µM for input COc1ccc(-c2nnc(CSC3=NC(c4ccc(F)cc4)C(C(C)=O)=C(C)N3)o2)cc1 (centres undefined)
Result :: 13.4

Query :: CCOC(=O)C1=C(C)NC(SCc2nnc(-c3ccc(Cl)cc3)o2)=NC1c1cccc(Cl)c1 (centres undefined) ?
Result :: 26.2

---

Below: a set of entries, each annotated with reported inhibition of growth at 10 µM.
- Tested on: ACHN
- Test summary: Growth inhibition of human ACHN cells at 10 uM incubated for 48 hrs by sulforhodamine B assay relative to control
- Type: functional
- Experimental setup: read-out: GI

Below: 3 molecules and their reported inhibition of growth at 10 µM.
[
  {
    "Molecule": "CCOC(=O)C1=C(C)NC(SCc2nnc(-c3ccc(OC)cc3)o2)=NC1c1ccc(F)cc1 (centres undefined)",
    "inhibition of growth at 10 µM": "< 10%"
  },
  {
    "Molecule": "CCOC(=O)C1=C(C)NC(SCc2nnc(-c3ccc(Cl)cc3)o2)=NC1c1ccccc1 (centres undefined)",
    "inhibition of growth at 10 µM": "< 10%"
  },
  {
    "Molecule": "CCOC(=O)C1=C(C)NC(SCc2nnc(-c3ccc(Cl)cc3)o2)=NC1c1ccc(F)cc1 (centres undefined)",
    "inhibition of growth at 10 µM": "< 10%"
  }
]

// next entry
Query :: // returns reported inhibition of growth at 10 µM for input CCOC(=O)C1=C(C)NC(SCc2nnc(-c3ccc(Cl)cc3)o2)=NC1c1ccc(Cl)cc1 (centres undefined)
Result :: 35.9%

---

Below: a set of entries, each annotated with reported inhibition of growth at 10 µM.
- System: MDA-MB-231
- Test summary: Growth inhibition of human MDA-MB-231 cells at 10 uM incubated for 48 hrs by sulforhodamine B assay relative to control
- Assay type: functional
- Experimental setup: MDA-MB-231, 48 h, read-out: GI

[
  {
    "Compound": "CC(=O)C1=C(C)NC(SCc2nnc(-c3ccc(Cl)cc3)o2)=NC1c1ccc(Cl)cc1 (stereo not drawn)",
    "Reported": "27%"
  },
  {
    "Compound": "CCOC(=O)C1=C(C)NC(SCc2nnc(-c3ccc(Cl)cc3)o2)=NC1c1ccc(Br)cc1 (stereo not drawn)",
    "Reported": "40.2%"
  },
  {
    "Compound": "CCOC(=O)C1=C(C)NC(SCc2nnc(-c3ccc(Cl)cc3)o2)=NC1c1cccc(Cl)c1 (stereo not drawn)",
    "Reported": "18.9%"
  },
  {
    "Compound": "CCOC(=O)C1=C(C)NC(SCc2nnc(-c3ccc(Cl)cc3)o2)=NC1c1ccc(Cl)cc1Cl (stereo not drawn)",
    "Reported": "58.3%"
  },
  {
    "Compound": "CCOC(=O)C1=C(C)NC(SCc2nnc(-c3ccc(OC)cc3)o2)=NC1c1ccc(F)cc1 (stereo not drawn)",
    "Reported": "< 10%"
  },
  {
    "Compound": "CCOC(=O)C1=C(C)NC(SCc2nnc(-c3ccc(Cl)cc3)o2)=NC1c1ccc(Cl)cc1 (stereo not drawn)",
    "Reported": "37.3%"
  }
]

Query :: // returns reported inhibition of growth at 10 µM for input CCOC(=O)C1=C(C)NC(SCc2nnc(-c3ccc(C)cc3)o2)=NC1c1ccc(F)cc1 (stereo not drawn)
Result :: 14.7%

Query :: COc1ccc(-c2nnc(CSC3=NC(c4ccc(F)cc4)C(C(C)=O)=C(C)N3)o2)cc1 (stereo not drawn) ?
Result :: 14.4%
